experiment: self-splicing fitness, log relative to wild type (ln ratio); higher = more splicing; Tetrahymena group I intron in knt gene, E. coli kanamycin selection, DiMSum; sequences stand for … in CUCUCU…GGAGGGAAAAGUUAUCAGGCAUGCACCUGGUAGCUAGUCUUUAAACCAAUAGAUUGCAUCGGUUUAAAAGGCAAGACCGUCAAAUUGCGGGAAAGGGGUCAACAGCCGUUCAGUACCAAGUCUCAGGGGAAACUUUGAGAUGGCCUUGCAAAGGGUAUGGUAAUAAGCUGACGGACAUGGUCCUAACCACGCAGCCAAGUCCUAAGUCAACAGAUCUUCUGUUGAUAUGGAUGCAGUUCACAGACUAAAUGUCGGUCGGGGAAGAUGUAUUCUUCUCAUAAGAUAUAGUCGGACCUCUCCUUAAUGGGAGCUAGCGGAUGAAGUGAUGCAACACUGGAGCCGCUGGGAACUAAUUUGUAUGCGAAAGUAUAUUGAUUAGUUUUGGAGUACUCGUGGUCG; details: 37 °C;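 further: selection with 25 µg/mL kanamycin versus none on LB agar overnight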
measured_endpoint: self-splicing fitness (ln)
One number for each entry.

Respectfully, I request self-splicing fitness (ln) for each entry included below.
1. CCGGAGCAAUAUUACGGUAA
2. GGGUAGCAAUAUUACGCGUU
3. CCCUAGCAAUAUUACGGGAU
4. GCUCAGCAAUAUUACGGAUU

Output:
[-3.21, -0.0887, -3.12, 0.362]

Return reported self-splicing fitness (ln) values for all items listed beneath this line.
1. GGACAGCAAUAUUACGUAGA
2. AAAUAGCAAUAUUACGUUCG
3. GUUUAGCAAUAUUACGGCUG
4. GUGUAGCAAUAUUACGCCCA
5. CGCAAGCAAUAUUACGCCUU
6. ACCUAGCAAUAUUACGCCCA
7. CCUUAGCAAUAUUACGUCUC

Output:
-0.126
-0.371
-0.169
-0.199
-2.62
-0.343
-2.63

State the recorded self-splicing fitness (ln) for every item in the following list.
1. CGUCAGCAAUAUUACGUCGA
2. UAGCAGCAAUAUUACGCCCU
3. CACCAGCAAUAUUACGAACG

Output:
1: -1.77; 2: -0.863; 3: 0.344

For every record below, what is its self-splicing fitness (ln)?
1. UAGGAGCAAUAUUACGUUUU
2. UGGAAGCAAUAUUACGUAGC

Output:
[-1.89, -0.661]

* * *

assay: self-splicing fitness, log relative to wild type (ln ratio); higher = more splicing; Tetrahymena group I intron in knt gene, E. coli kanamycin selection, DiMSum; sequences stand for … in CUCUCU…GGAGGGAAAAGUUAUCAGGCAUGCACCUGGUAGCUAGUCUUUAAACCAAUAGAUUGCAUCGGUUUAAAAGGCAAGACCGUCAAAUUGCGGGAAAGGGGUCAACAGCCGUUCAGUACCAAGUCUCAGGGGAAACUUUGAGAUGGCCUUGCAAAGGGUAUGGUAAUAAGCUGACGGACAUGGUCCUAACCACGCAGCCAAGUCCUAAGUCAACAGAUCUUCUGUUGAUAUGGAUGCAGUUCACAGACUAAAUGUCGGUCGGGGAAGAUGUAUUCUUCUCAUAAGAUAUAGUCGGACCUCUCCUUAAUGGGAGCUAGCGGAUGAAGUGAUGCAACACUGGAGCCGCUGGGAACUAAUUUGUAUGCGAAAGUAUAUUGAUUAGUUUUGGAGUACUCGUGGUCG; settings: 37 °C
Dear colleague, classification is by self-splicing fitness (ln), with ranges listed here: low end (below -2), middle (-2 to below -1), high end (-1 or more)

Some solved entries appear below for comparison.
| construct_sequence | class_label |
| --- | --- |
| CGCUAGCAAUAUUACGAGAG | low end |
| UAUGAGCAAUAUUACGGCAG | high end |

Input: Which category does the recorded self-splicing fitness (ln) put `UCAUAGCAAUAUUACGAGCG` in?
Output: high end

Input: Next record, please: `CCCAAGCAAUAUUACGCGGU`
Output: middle

Input: Repeat with `GGUCAGCAAUAUUACGUGCU`
Output: high end

Input: Please give the result for `CGUGAGCAAUAUUACGCGUG` too.
Output: high end

* * *

experiment: self-splicing fitness, log relative to wild type (ln ratio); higher = more splicing; Tetrahymena group I intron in knt gene, E. coli kanamycin selection, DiMSum; sequences stand for … in CUCUCU…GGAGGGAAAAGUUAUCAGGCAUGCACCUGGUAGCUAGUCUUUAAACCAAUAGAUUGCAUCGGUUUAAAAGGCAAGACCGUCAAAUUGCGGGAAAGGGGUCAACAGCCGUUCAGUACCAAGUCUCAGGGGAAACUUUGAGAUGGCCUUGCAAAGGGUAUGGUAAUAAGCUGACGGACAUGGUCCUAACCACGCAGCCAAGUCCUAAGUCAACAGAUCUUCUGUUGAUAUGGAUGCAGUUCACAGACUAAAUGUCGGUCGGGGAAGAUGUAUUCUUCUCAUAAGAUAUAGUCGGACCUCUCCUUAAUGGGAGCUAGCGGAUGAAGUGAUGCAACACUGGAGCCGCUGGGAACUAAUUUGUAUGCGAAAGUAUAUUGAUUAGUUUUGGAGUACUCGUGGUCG; conditions: 37 °C
Give measured self-splicing fitness (ln) for each item. Keep answers brief.
Numbers only.

// known answers, use as guide
| construct_sequence | self-splicing fitness (ln) |
| --- | --- |
| CCUCAGCAAUAUUACGCACA | -2.02 |
| CUGUAGCAAUAUUACGCGAA | -2.26 |
| CGCCAGCAAUAUUACGUCGC | -2.11 |

Provide self-splicing fitness (ln) values for the following items, in order.
1. CAAGAGCAAUAUUACGUUUA
2. UUCAAGCAAUAUUACGUAAG
3. UUCAAGCAAUAUUACGGACU
4. UGCGAGCAAUAUUACGACAG

Output:
1: -1.61; 2: -0.866; 3: -0.504; 4: -1.29

Hey, quick one: what's self-splicing fitness (ln) for each of these?
1. AGCGAGCAAUAUUACGCGAG
2. AAAUAGCAAUAUUACGGCCC
3. AUGCAGCAAUAUUACGUCAU
4. GUGUAGCAAUAUUACGUCAA
5. AAAAAGCAAUAUUACGUUUC

Output:
-3.05
-0.254
-2.26
-1.14
-3.26

Give one value of self-splicing fitness (ln) per listed sequence.
1. AUCUAGCAAUAUUACGGACG
2. ACUAAGCAAUAUUACGCGUU

Output:
0.212
-1.58

# batch size: 2; output self-splicing fitness (ln) per entry
1. GGCAAGCAAUAUUACGCUAA
2. GGUGAGCAAUAUUACGCAUA

Output:
0.1
-1.55

For each of the items listed, what is its self-splicing fitness (ln)?
1. AUGCAGCAAUAUUACGAGGG
2. GACGAGCAAUAUUACGAUAC
3. AAUAAGCAAUAUUACGGACG

Output:
-3.09
-2.16
-0.397

Hey, can you go through the list below and give me self-splicing fitness (ln) for every item?
1. UGACAGCAAUAUUACGAUAC
2. UUUUAGCAAUAUUACGUGUG
3. GCGUAGCAAUAUUACGAGGC
4. GUUCAGCAAUAUUACGGCAA
5. AGUAAGCAAUAUUACGAGAU
6. UCCUAGCAAUAUUACGCGAU
7. CUCGAGCAAUAUUACGGGUA
8. AAAAAGCAAUAUUACGCAGG

Output:
1. -1.61
2. -1.17
3. -1.53
4. -0.458
5. -0.575
6. -2.65
7. -1.81
8. -1.03

Required: self-splicing fitness (ln), one value per sequence below.
1. GUGUAGCAAUAUUACGUACA
2. UGAGAGCAAUAUUACGACUA
3. AGAGAGCAAUAUUACGGAUU
4. CCGGAGCAAUAUUACGAGCC
5. ACCAAGCAAUAUUACGUCCG
6. CUUGAGCAAUAUUACGUCAC
7. ACUAAGCAAUAUUACGUCAA

Output:
[-1.87, -1.64, -2.57, -2.1, -1.19, -2.73, -1.35]

* * *

experiment: self-splicing fitness, log relative to wild type (ln ratio); higher = more splicing; Tetrahymena group I intron in knt gene, E. coli kanamycin selection, DiMSum; sequences stand for … in CUCUCU…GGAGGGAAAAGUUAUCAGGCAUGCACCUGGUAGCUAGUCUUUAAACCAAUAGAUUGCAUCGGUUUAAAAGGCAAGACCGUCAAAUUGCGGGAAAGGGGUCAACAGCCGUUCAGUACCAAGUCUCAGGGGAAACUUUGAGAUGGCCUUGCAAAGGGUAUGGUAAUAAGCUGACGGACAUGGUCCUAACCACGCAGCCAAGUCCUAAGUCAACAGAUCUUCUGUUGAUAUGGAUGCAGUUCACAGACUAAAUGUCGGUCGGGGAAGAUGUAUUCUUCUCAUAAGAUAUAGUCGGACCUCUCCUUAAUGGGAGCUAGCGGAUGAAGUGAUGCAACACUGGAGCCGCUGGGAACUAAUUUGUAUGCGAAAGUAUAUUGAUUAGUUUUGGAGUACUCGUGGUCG; settings: 30 °C
Returns satisfied if the recorded self-splicing fitness (ln) is greater than or equal to -2, and not satisfied otherwise.

| construct_sequence | class_label |
| --- | --- |
| GUCCAGCAAUAUUACGAAUC | satisfied |

Input: Given `AACCAGCAAUAUUACGAGCU` , state whether its self-splicing fitness (ln) is at least -2.
Output: not satisfied

Input: Same question, `UCGGAGCAAUAUUACGGGCA` this time
Output: not satisfied

Input: Same lookup for `GACUAGCAAUAUUACGGGAG` , please.
Output: satisfied
